Listed below: Growth Rate values for each entry.
Test system: U2OS
Test: Incucyte cell viability with U2OS; further: unitless GR value; below 1 slowed growth and below 0 cell loss
Type: toxicity, cell-based
Condition Notes: human, 0 h, 10 µM, compound concentration 10 uM, replicate number 2, timepoint 0 hours
Measurement Name: Growth Rate

• CN(c1ncccc1CNc1ccnc(-c2nc3c(F)c(Cl)ccc3[nH]2)n1)S(C)(=O)=O = -0.69
• CC(C)c1c(NC(=O)Nc2ccc(Cl)cc2)c(=O)n(-c2ccccc2)n1C = -0.97
• COCCn1c(C)c(C)s/c1=N\C(=O)C1C(C)(C)C1(C)C = -1
• CC1(C)[C@H]2C[C@H](C/C=C\CCCC(=O)O)[C@@H](NC(=O)c3csc4ccc(O)cc34)[C@@H]1C2 = -0.79
• Cc1c(C(=O)NN2CCCCC2)nn(-c2ccc(Cl)cc2Cl)c1-c1ccc(Cl)cc1 [RIMONABANT] = -1
• O=C(NCCO)c1cccc(-c2cc(Nc3ccc(OC(F)(F)F)cc3)ncn2)c1 = 0.42
• COc1cc(NC(=O)CCN2CCC(OC(=O)Nc3ccccc3-c3ccccc3)CC2)c(Cl)cc1CNC[C@H](O)c1ccc(O)c2[nH]c(=O)ccc12 [BATEFENTEROL] = -1
• Cc1ccc(-c2ccc(F)cc2COc2ccc(CCC(=O)O)cc2)cc1 = -0.59
• COC[C@@H](CC(C)C)NC1=N/C(=C\c2ccc3ncsc3c2)C(=O)N1C = 0.78
• C(#Cc1cccc(CN2CCOCC2)c1)CCN1CCCCC1 = -1
• C[C@H](CCC(=O)O)[C@H]1CC[C@H]2[C@@H]3CC[C@@H]4C[C@H](O)CC[C@]4(C)[C@H]3CC[C@]12C [LITHOCHOLIC ACID] = 0.03
• O=C(O)CCc1ccc(NCc2cccc(Oc3ccccc3)c2)cc1 [GW9508] = 0.8
• CCN1/C(=C/C(C)=O)Sc2ccc(OC(C)=O)cc21 = -1
• CC(C)CC(=O)Nc1cncc(-c2ccc3[nH]nc(-c4nc5c(-c6cccc(F)c6)cncc5[nH]4)c3c2)c1 [LORECIVIVINT] = -0.94
• CSCC[C@H](NC(=O)[C@@H]1CCCN1C(=O)CNC(=O)[C@H](CCCCN)NC(=O)[C@H](Cc1cnc[nH]1)NC(=O)[C@H](CO)NC(=O)[C@H](CC(C)C)NC(=O)[C@H](CCCNC(=N)N)NC(=O)[C@@H]1CCCN1C(=O)[C@H](CCCNC(=N)N)NC(=O)[C@@H](N)CCC(N)=O)C(=O)N1CCC[C@H]1C(=O)N[C@@H](Cc1ccccc1)C(=O)O = -0.88
• CC[C@@H](C)Nc1nc(C)nc2c(-c3ccc(OC)nc3C)c(C)nn12 [PEXACERFONT] = -1
